Give pIC50 for every item shown.
- Tested on: HT-29;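 further: growth inhibition of human HT-29 cells, read out by a cell viability assay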
- procedure.text: cells
- Assay type: functional, cell-based, Homo sapiens
- condition.description: Homo sapiens, HT-29
- Description: SANGER: Inhibition of human HT-29 cell growth in a cell viability assay.
pIC50: −log10 of the molar value.

Field request: pIC50 | item: Nc1cccc2c1CN(C1CCC(=O)NC1=O)C2=O (stereo not drawn) [LENALIDOMIDE]
< 5.30

Field request: pIC50 | item: CC(C)CCN1c2nc(Nc3cc(F)c(O)c(F)c3)ncc2N(C)C(=O)C1C (stereo not drawn)
< 5.30

Field request: pIC50 | item: Cc1cc([N+](=O)[O-])ccc1NS(=O)(=O)c1cc(Cl)ccc1Cl
5.26
